# tgt: HLA-B*18:01
# assay.name: IEDB peptide-MHC binding, purified MHC/competitive/fluorescence; filed as Kd, often an IC50 or EC50 that approximates it; bounds were set here for any values at or beyond the usual limits of such assays
# setup.conditions: source organism: Variola major virus

item.sequence	tgt	Kd
RYPGVMYAF	HLA-B*18:01	989 nM

====

# tgt: HLA-A*31:01
# assay.name: IEDB peptide-MHC binding, purified MHC/direct/fluorescence; filed as Kd, often an IC50 or EC50 that approximates it; bounds were set here for any values at or beyond the usual limits of such assays
# setup.conditions: source organism: Giardia intestinalis

item.sequence	Kd
LEKWNLGII	≥ 20 µM

====

# tgt: HLA-B*15:17
# assay.name: IEDB peptide-MHC binding, purified MHC/competitive/fluorescence; filed as Kd, often an IC50 or EC50 that approximates it; bounds were set here for any values at or beyond the usual limits of such assays
# setup.conditions: source organism: Orthomarburgvirus marburgense
pKd: −log10 of the molar value.

item.sequence	pKd
LFLSFCSLF	≤ 4.70

====

# tgt: HLA-B*07:02
# assay.name: IEDB peptide-MHC binding, purified MHC/direct/fluorescence; filed as Kd, often an IC50 or EC50 that approximates it; bounds were set here for any values at or beyond the usual limits of such assays
# setup.conditions: source organism: Giardia intestinalis
pKd: −log10 of the molar value.
outcome.measure: pKd

item.sequence	recorded.value
LEKWNLGII	≤ 4.70

====

# tgt: HLA-A*31:01
# assay.name: IEDB peptide-MHC binding, purified MHC/direct/fluorescence; filed as Kd, often an IC50 or EC50 that approximates it; bounds were set here for any values at or beyond the usual limits of such assays
# setup.conditions: source organism: Yellow fever virus
pKd: −log10 of the molar value.
outcome.measure: pKd

item.sequence	recorded.value
FHERGYVKL	≤ 4.70

====

# tgt: HLA-A*69:01
# assay.name: IEDB peptide-MHC binding, purified MHC/direct/fluorescence; filed as Kd, often an IC50 or EC50 that approximates it; bounds were set here for any values at or beyond the usual limits of such assays
# setup.conditions: source organism: dengue virus type 4
pKd: −log10 of the molar value.
outcome.measure: pKd

item.sequence	outcome.measure	recorded.value
TPEGIIPTL	pKd	5.57

====

In this section we review reported Kd values for a set of sequences.
# tgt: HLA-A*01:01
# assay.name: IEDB peptide-MHC binding, purified MHC/competitive/radioactivity; filed as Kd, often an IC50 or EC50 that approximates it; bounds were set here for any values at or beyond the usual limits of such assays
# setup.conditions: source organism: Dengue virus 2 Jamaica/1409/1983
outcome.measure: Kd (nM)

item.sequence	prefix.operator	recorded.value
FTTNIWLKL	=	1330
MTTEDMLAV	=	2700
VTEEIAVQNW	≥	38700
LSPVRVPNY	=	5420

====

# tgt: HLA-B*15:01
# assay.name: IEDB peptide-MHC binding, purified MHC/direct/fluorescence; filed as Kd, often an IC50 or EC50 that approximates it; bounds were set here for any values at or beyond the usual limits of such assays
# setup.conditions: source organism: Pseudomonas putida

item.sequence	Kd
DLSNSMRDF	≥ 20 µM

====

# tgt: HLA-B*54:01
# assay.name: IEDB peptide-MHC binding, purified MHC/competitive/radioactivity; filed as Kd, often an IC50 or EC50 that approximates it; bounds were set here for any values at or beyond the usual limits of such assays
# setup.conditions: source organism: SARS coronavirus Tor2

item.sequence	tgt	value.units	prefix.operator	Kd
RPNHTIKGSF	HLA-B*54:01	nM	≥	69900
SPSGVYQCAM	HLA-B*54:01	nM	=	2810
LPFYSNVTGF	HLA-B*54:01	nM	=	132
SPYNSQNAVA	HLA-B*54:01	nM	=	1.4

====

# tgt: HLA-A*69:01
# assay.name: IEDB peptide-MHC binding, purified MHC/direct/fluorescence; filed as Kd, often an IC50 or EC50 that approximates it; bounds were set here for any values at or beyond the usual limits of such assays
# setup.conditions: source organism: Homo sapiens

item.sequence	Kd [µM]
KSDPIMLLK	1.5

====

# tgt: HLA-B*39:01
# assay.name: IEDB peptide-MHC binding, purified MHC/competitive/fluorescence; filed as Kd, often an IC50 or EC50 that approximates it; bounds were set here for any values at or beyond the usual limits of such assays
# setup.conditions: source organism: Entamoeba histolytica
outcome.measure: Kd

item.sequence	tgt	outcome.measure	recorded.value
RASHFRKLF	HLA-B*39:01	Kd	≥ 20 µM

====

# tgt: HLA-B*15:01
# assay.name: IEDB peptide-MHC binding, purified MHC/direct/fluorescence; filed as Kd, often an IC50 or EC50 that approximates it; bounds were set here for any values at or beyond the usual limits of such assays
# setup.conditions: source organism: Convict Creek 107 virus
pKd: −log10 of the molar value.
outcome.measure: pKd

item.sequence	recorded.value
VLFKTESGF	7.93

====

# tgt: HLA-C*04:01
# assay.name: IEDB peptide-MHC binding, purified MHC/competitive/fluorescence; filed as Kd, often an IC50 or EC50 that approximates it; bounds were set here for any values at or beyond the usual limits of such assays
# setup.conditions: source organism: Yersinia pestis CO92
outcome.measure: Kd

item.sequence	recorded.value
FRDRGQHVL	≥ 5 µM

====

# tgt: HLA-B*57:01
# assay.name: IEDB peptide-MHC binding, purified MHC/direct/fluorescence; filed as Kd, often an IC50 or EC50 that approximates it; bounds were set here for any values at or beyond the usual limits of such assays
# setup.conditions: source organism: Aracatuba virus
pKd: −log10 of the molar value.

item.sequence	tgt	pKd
YKEPNSIIL	HLA-B*57:01	≤ 4.70

====

In this section we review reported Kd values for a set of sequences.
# tgt: HLA-A*31:01
# assay.name: IEDB peptide-MHC binding, purified MHC/direct/fluorescence; filed as Kd, often an IC50 or EC50 that approximates it; bounds were set here for any values at or beyond the usual limits of such assays
# setup.conditions: source organism: Giardia lamblia ATCC 50803

item.sequence	Kd
VSSKKCTAL	≥ 20 µM
PPQATAKYL	≥ 20 µM

====

# tgt: HLA-A*68:02
# assay.name: IEDB peptide-MHC binding, purified MHC/competitive/fluorescence; filed as Kd, often an IC50 or EC50 that approximates it; bounds were set here for any values at or beyond the usual limits of such assays
# setup.conditions: source organism: Variola major virus
pKd: −log10 of the molar value.
outcome.measure: pKd

item.sequence	outcome.measure	recorded.value
RYPGVMYAF	pKd	≤ 4.70

====

In this section we review reported log10(Kd) values for a set of sequences.
# tgt: HLA-A*33:01
# assay.name: IEDB peptide-MHC binding, purified MHC/competitive/radioactivity; filed as Kd, often an IC50 or EC50 that approximates it; bounds were set here for any values at or beyond the usual limits of such assays
# setup.conditions: source organism: SARS coronavirus Tor2
outcome.measure: log10(Kd) (log10 of the value in µM)

item.sequence	outcome.measure	recorded.value
TQVYIAVNDK	log10(Kd)	0.97
IINNAVYTK	log10(Kd)	1.29
SFNHVLKRK	log10(Kd)	0.83
GTSWFITQR	log10(Kd)	0.09
RFNVAITRAK	log10(Kd)	0.89
VQIGEYTFEK	log10(Kd)	1.05
AIMQVFFGY	log10(Kd)	0.15
VSTCFKLMLK	log10(Kd)	0.76
KSAGFPFNK	log10(Kd)	0.69
QLQLLMPLK	log10(Kd)	0.37
TLAILTALR	log10(Kd)	-0.08
LTRNPAWRK	log10(Kd)	0.20
RLLACLCKHK	log10(Kd)	0.65

====

# tgt: HLA-A*24:02
# assay.name: IEDB peptide-MHC binding, purified MHC/competitive/radioactivity; filed as Kd, often an IC50 or EC50 that approximates it; bounds were set here for any values at or beyond the usual limits of such assays
# setup.conditions: source organism: Variola virus
outcome.measure: Kd (nM)

item.sequence	recorded.value
RYYDGNIYDL	87.9

====

# tgt: HLA-A*03:01
# assay.name: IEDB peptide-MHC binding, purified MHC/direct/fluorescence; filed as Kd, often an IC50 or EC50 that approximates it; bounds were set here for any values at or beyond the usual limits of such assays
# setup.conditions: source organism: Entamoeba histolytica HM-1:IMSS

item.sequence	tgt	Kd
STYQFSLMQ	HLA-A*03:01	≥ 20 µM

====

# tgt: HLA-C*06:02
# assay.name: IEDB peptide-MHC binding, purified MHC/direct/fluorescence; filed as Kd, often an IC50 or EC50 that approximates it; bounds were set here for any values at or beyond the usual limits of such assays
# setup.conditions: source organism: Human immunodeficiency virus 1
outcome.measure: Kd (µM)

item.sequence	outcome.measure	value.units	recorded.value
RMYSPVSIL	Kd	µM	3.11

====

# tgt: HLA-A*69:01
# assay.name: IEDB peptide-MHC binding, purified MHC/direct/fluorescence; filed as Kd, often an IC50 or EC50 that approximates it; bounds were set here for any values at or beyond the usual limits of such assays
# setup.conditions: source organism: Buffalopox virus

item.sequence	tgt	Kd
RYPGVMYAF	HLA-A*69:01	≥ 20 µM

Where do these numbers come from? They come from the Immune Epitope Database (IEDB).
